# tested_target: IRAK-4 (Homo sapiens, UniProt Q9NWZ3)
# Sequence (Q9NWZ3 1-460): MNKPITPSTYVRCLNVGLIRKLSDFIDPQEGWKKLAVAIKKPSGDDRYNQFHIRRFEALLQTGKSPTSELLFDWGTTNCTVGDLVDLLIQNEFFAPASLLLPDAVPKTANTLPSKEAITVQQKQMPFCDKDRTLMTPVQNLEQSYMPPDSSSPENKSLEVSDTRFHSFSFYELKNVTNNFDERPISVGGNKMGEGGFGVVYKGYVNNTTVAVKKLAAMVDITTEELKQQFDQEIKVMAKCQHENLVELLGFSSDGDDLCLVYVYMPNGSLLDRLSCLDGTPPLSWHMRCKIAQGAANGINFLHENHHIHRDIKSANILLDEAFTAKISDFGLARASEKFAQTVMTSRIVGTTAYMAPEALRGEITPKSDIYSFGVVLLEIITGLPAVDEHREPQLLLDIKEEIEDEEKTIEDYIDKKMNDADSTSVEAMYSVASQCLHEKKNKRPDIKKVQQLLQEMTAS
# assay_info: IRAK-4 ELISA, PBMC degradation
# Format: cell-based
# Set-up: endogenous in cells; host or cells: PBMC
# cond: treated overnight
Please respond with reported DC50 for every item in the list.

These solved cases illustrate the format of a correct answer.
IN: Could you tell me which DC50 is on file for O=C1CCC(N2Cc3cc(N4CC(F)(CN5CCC(n6cc7cc(NC(=O)c8cnn9cccnc89)c(OCC8CC8)cc7n6)CC5)C4)c(F)cc3C2=O)C(=O)N1 (centres unmarked) ?
OUT: < 1 nM

IN: Please look up its DC50: CC(C)Oc1cc2c(cc1NC(=O)c1cnn3ccc(N4CCOCC4)nc13)CN(C1CCN(CC3CCN(c4ccc5c(c4)C(=O)N(C4CCC(=O)NC4=O)C5=O)CC3)CC1)C2=O (centres unmarked)
OUT: 5 to 10 nM

IN: Entry COc1cc(N2CC(F)(CN3CCC(n4cc5cc(NC(=O)c6cnn7cccnc67)c(OC(C)C)nc5n4)CC3)C2)cc2c1C(=O)N(C1CCC(=O)NC1=O)C2=O (centres unmarked) has what DC50?
OUT: 1 to 5 nM

IN: For the molecule CC(C)Oc1cc2c(cc1NC(=O)c1cnn3cccnc13)CN(C1CCN(CCOCCOc3ccc4c(c3)CN(C3CCC(=O)NC3=O)C4=O)CC1)C2=O (centres unmarked) , what DC50 is on record?
OUT: < 1 nM

IN: Using the record for CC(C)Oc1cc2nn([C@H]3CC[C@H](OC4CN(c5ccc6c(c5)CN(C5CCC(=O)NC5=O)C6=O)C4)CC3)cc2cc1NC(=O)c1cnn2cccnc12 (some centres unmarked) , report its DC50.
OUT: 1 to 5 nM

IN: Fill blank: measured DC50 of the molecule CN(C1CN(c2ccc3c(c2)C(=O)N(C2CCC(=O)NC2=O)C3=O)C1)[C@H]1CC[C@H](n2cc3cc(NC(=O)c4cnn5cccnc45)c(C4CC4)cc3n2)CC1 (some centres unmarked) is ____.
OUT: < 1 nM

IN: Recorded DC50 for CC(C)Oc1cc2c(cc1NC(=O)c1cnn3cccnc13)CN(C1CCC(N(C)C3CCN(c4ccc5c(c4)C(=O)N(C4CCC(=O)NC4=O)C5=O)CC3)CC1)C2=O (centres unmarked) , please?
OUT: < 1 nM

IN: # input molecule: CC(C)Oc1cc2c(cc1NC(=O)c1cnn3cccnc13)CN(C1CCN(CC3CCN(c4ccc5c(c4)C(=O)N(C4CCC(=O)NC4=O)C5)CC3)CC1)C2=O (centres unmarked) ; wanted: its DC50
OUT: ≥ 10 nM

Hi team, please reply with DC50 for each item in this list.
1. COc1cc2c(cc1N1CC(F)(CN3CCC(n4cc5cc(NC(=O)c6cnn7cccnc67)c(OCC6CC6)cc5n4)CC3)C1)C(=O)N(C1CCC(=O)NC1=O)C2=O (centres unmarked)
2. O=C1CCC(N2Cc3cc(N4CCC(CN5CCC(N6Cc7cc(NC(=O)c8cnn9cccnc89)c(N8CCN(C9CC(F)(F)C9)CC8)cc7C6=O)CC5)CC4)ccc3C2=O)C(=O)N1 (centres unmarked)
3. CC(C)Oc1cc2c(cc1NC(=O)c1cnn3cccnc13)CN(C1CCC(N(C)C3CN(c4ccc5c(c4)CN(C4CCC(=O)NC4=O)C5=O)C3)CC1)C2=O (centres unmarked)

OUT:
1. 1 to 5 nM
2. 1 to 5 nM
3. < 1 nM

Attribution: patent US20230099344A1
